test system: Pichia kudriavzevii; test: In vitro antifungal activity against Candida krusei (CK 28838); assay type: functional
experimentalEndpoint: MIC (µg/mL)
Answers are plain numbers, in µg/mL.

These recorded examples may help you get a feel for the data.
CO[C@@H]1C[C@H](C[C@@H](C)[C@@H]2CC(=O)[C@H](C)/C=C(\C)[C@@H](O)[C@@H](OC)C(=O)[C@H](C)C[C@H](C)/C=C/C=C/C=C(\C)[C@@H](N(OC)C(=O)N(C)C)C[C@@H]3CC[C@@H](C)[C@@](O)(O3)C(=O)C(=O)N3CCCC[C@H]3C(=O)O2)CC[C@H]1O; 3.12
CO[C@H]1C[C@@H]2CC[C@@H](C)[C@@](O)(O2)C(=O)C(=O)N2CCCC[C@H]2C(=O)O[C@H]([C@H](C)C[C@@H]2CC[C@@H](OC(=O)N(C)O)[C@H](OC)C2)CC(=O)[C@H](C)/C=C(\C)[C@@H](O)[C@@H](OC)C(=O)[C@H](C)C[C@H](C)CCCC/C=C/1C; 1.56
CO[C@@H]1C[C@H](C[C@@H](C)[C@@H]2CC(=O)[C@H](C)/C=C(\C)[C@@H](O)[C@@H](OC)C(=O)[C@H](C)C[C@H](C)/C=C/C=C/C=C(\C)[C@@H](N(O)C(=O)OCC(C)C)C[C@@H]3CC[C@@H](C)[C@@](O)(O3)C(=O)C(=O)N3CCCC[C@H]3C(=O)O2)CC[C@H]1O; 0.78

Batch request: MIC per item, same order as input.
1. CO[C@@H]1C[C@H](C[C@@H](C)[C@@H]2CC(=O)[C@H](C)/C=C(\C)[C@@H](O)[C@@H](OC)C(=O)[C@H](C)C[C@H](C)/C=C/C=C/C=C(\C)[C@@H](N(O)C(N)=O)C[C@@H]3CC[C@@H](C)[C@@](O)(O3)C(=O)C(=O)N3CCCC[C@H]3C(=O)O2)CC[C@H]1O
2. CO[C@@H]1C[C@H](C[C@@H](C)[C@@H]2CC(=O)[C@H](C)/C=C(\C)[C@@H](O)[C@@H](OC)C(=O)[C@H](C)C[C@H](C)/C=C/C=C/C=C(\C)[C@H](N(O)C(=O)OCC(C)C)C[C@@H]3CC[C@@H](C)[C@@](O)(O3)C(=O)C(=O)N3CCCC[C@H]3C(=O)O2)CC[C@H]1O

(A)
1. 3.12
2. 0.78

(Q) Need MIC, item `CO[C@@H]1C[C@H](C[C@@H](C)[C@@H]2CC(=O)[C@H](C)/C=C(\C)[C@@H](O)[C@@H](OC)C(=O)[C@H](C)C[C@H](C)/C=C/C=C/C=C(\C)[C@H](N(O)C(=O)OC(C)C)C[C@@H]3CC[C@@H](C)[C@@](O)(O3)C(=O)C(=O)N3CCCC[C@H]3C(=O)O2)CC[C@H]1O`
(A) 0.78
